- target: UniProt P25929
- Sequence (P25929 whole entry): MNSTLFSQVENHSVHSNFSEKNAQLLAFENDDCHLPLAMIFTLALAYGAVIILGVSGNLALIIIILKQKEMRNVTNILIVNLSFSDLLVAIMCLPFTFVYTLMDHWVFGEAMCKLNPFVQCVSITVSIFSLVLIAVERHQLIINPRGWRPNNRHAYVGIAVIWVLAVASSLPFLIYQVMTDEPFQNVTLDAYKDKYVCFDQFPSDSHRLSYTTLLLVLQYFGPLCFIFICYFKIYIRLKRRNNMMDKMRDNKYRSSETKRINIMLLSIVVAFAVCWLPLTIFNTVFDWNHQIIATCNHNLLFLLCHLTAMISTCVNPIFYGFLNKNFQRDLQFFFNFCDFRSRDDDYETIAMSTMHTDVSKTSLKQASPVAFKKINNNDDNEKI
- experimental_details: ChEBML_143683
Reported values of IC50 for individual entries

{"molecule": "COC(=O)C1=C(C)N=C(C)C(C(=O)OC)N1c1cccc(NC(=S)NCCCN2CCC(C(C)(C)C)CC2)c1 (configuration not stated)", "IC50": "> 1000 nM"}

Continue with the molecule presented below.
Form field IC50, entry COC(=O)C1=C(C)N=C(C)C(C(=O)OC)N1c1cccc(NC(=S)NCCCN2CCN(C3CCCCC3)CC2)c1 (configuration not stated) : > 1000 nM

Value source: BindingDB's records for doi:10.1016/s0960-894x(01)00765-x
